# Test system: U-251
# test-summary: NCI tumour cell line growth inhibition, 48 h
The source made the active and inactive calls. No stated cut-off is given here; in the data, active = GI50 up to about 1.1 µM and inactive = higher.
Mark one answer only. Choices: class 1 = active, class 0 = inactive

Sample answers from the record:
compound	tgt	answer-label
CCn1c2ccccc2c2cc(Nc3cc(C)[nH]c(=O)n3)ccc21	U-251	class 0
Cc1cccc(C(C)C)c1NC(=O)CCl	U-251	class 0
CC(=O)O[C@@]12CO[C@@H]1C[C@H](O)[C@@]1(C)C(=O)[C@H](O)C3=C(C)[C@@H](OC(=O)[C@H](O)[C@@H](NC(=O)OC(C)(C)C)c4ccccc4)C[C@@](O)([C@@H](OC(=O)c4ccccc4)[C@H]21)C3(C)C	U-251	class 1

Field: next compound
## Task Record lookup: outcome of this test for CN(C)c1nc(N(C)C)nc(N(C)CN(C)c2ccccc2)n1 ?
## Result class 0

* * *

# Test system: SK-MEL-28
# test-summary: NCI tumour cell line growth inhibition, 48 h
Active and inactive are the calls of the source. Rule as the data show it: active = GI50 up to about 1.1 µM and inactive = higher.
Mark one answer only. Choices: active, inactive

Sample answers from the record:
molecule	answer-label
COc1cc(-c2cc(=O)c3ccccc3o2)ccc1N	inactive
C[C@@H]1CCC[C@]2(C)O[C@H]2CC[C@@](C)(O)[C@@H]2CC3=C(CO)C(=O)O[C@H]3[C@H]1O2	inactive
CN[C@@H](C)[C@H](OP(=O)(O)OC1[C@@H](O)[C@H](O)C(O)[C@H](O)[C@@H]1O)c1ccccc1 (some centres undefined)	inactive
CS(=O)(=O)C1(Br)S(=O)(=O)OCCOS1(=O)=O	inactive
N=C1C=C(N)C(=O)c2[nH]c(=O)ccc21	inactive
Cc1n2nc(N)sc2n[n+]1CC(=O)c1ccccc1	inactive

Field: next molecule
## Task Record lookup: outcome of this test for CCn1c2ccccc2c2cc(Nc3cc(C)[nH]c(=O)n3)ccc21 ?
## Result inactive

* * *

# System: HT-29
# test-summary: NCI tumour cell line growth inhibition, 48 h
Calls of active or inactive are those of the source. Cut-off read from the data, not from the text of the source: active = GI50 up to about 1.1 µM and inactive = higher.
quantity-kind: GI50

Consider the following illustrative entries.
compound	GI50
OC(COc1ccccc1)CN1CCCCC1 (centres undefined)	> 100 µM (inactive)
CCn1c2ccccc2c2cc(Nc3cc(C)[nH]c(=O)n3)ccc21	> 100 µM (inactive)
CCC(=O)O[C@H]1CC[C@H]2[C@@H]3CCC4=CC(=O)C=C[C@]4(O)[C@H]3CC[C@]12C	19.1 µM (inactive)
NNC(=O)N/N=C1\CNC(=O)C(=O)C1c1nc2ccccc2s1 (centres undefined)	> 100 µM (inactive)

I need GI50 for every entry listed below, if you could help.
1. COc1cc2cc[n+](C)c(Cc3ccc(Oc4cc(Cc5c6cc(OC)c(OC)cc6cc[n+]5C)ccc4OC)cc3)c2cc1OC
2. C=C1CC[C@H]2C(C)=CC[C@H]3C(=C)C(=O)O[C@@H]3[C@@H]12 [EREMANTHIN]
3. CC1OC(OC2C(OC(=O)[C@]34CCC(C)(C)C[C@H]3C3=CC[C@@H]5[C@@]6(C)CC[C@H](OC7OC(C(=O)O)C(O)C(O)C7O)C(C)(C)[C@@H]6CC[C@@]5(C)[C@]3(C)C[C@H]4O)OCC(O)C2O)C(O)C(OC2OCC(O)(CO)C2O)C1OC1OCC(O)C(O)C1O (some centres undefined)
4. Cc1ccc(/C=C/C(=N/NC(=O)N/N=C(/C=C/c2ccc(C)cc2)C(C)C)C(C)C)cc1
5. COc1ccc(/C=C\c2cc(OC)c(OC)c(OC)c2)cc1OC

## Result
> 100 µM (inactive)
> 100 µM (inactive)
3.53 µM (inactive)
> 10 µM (inactive)
0.124 µM (active)

I need GI50 for every entry listed below, if you could help.
1. CC(C)NC(=O)OCc1c(COC(=O)NC(C)C)n(C)c2c1ccc1cc(Cl)c(Cl)cc12
2. Cc1nc(N)nc(S)c1CCC(=O)O
3. COC(=O)c1cc(=O)nc2sc3cccc(C)c3n12
4. O=C(CSCC(=O)N/N=C/c1cccc(OCc2ccccc2)c1)N/N=C/c1cccc(OCc2ccccc2)c1
5. C[Si]12OCCCN(CCO1)CCO2
6. [O-][S+](c1ccc(O)cc1)c1ccc(O)cc1
7. NNC(=O)C(=O)N/N=C1/CCCC1C(=O)CCC(=O)Nc1ccc(Cl)cc1 (centres undefined)
8. Cc1cccc(C)c1NC(=O)CCCC(=O)C(C#N)c1ccc(Cl)cc1 (centres undefined)

## Result
1. 15.9 µM (inactive)
2. > 100 µM (inactive)
3. 28.5 µM (inactive)
4. 39.5 µM (inactive)
5. > 100 µM (inactive)
6. > 100 µM (inactive)
7. > 100 µM (inactive)
8. > 100 µM (inactive)

I need GI50 for every entry listed below, if you could help.
1. COc1ccc(C(C)NNC(=O)c2ccncc2)cc1OC (centres undefined)
2. N#CCCOCN(CO)c1nc(N(CO)COCCC#N)nc(N(CO)COCCC#N)n1

## Result
1: > 100 µM (inactive); 2: 29.1 µM (inactive)
